# SYSTEM UNDER TEST: FASN Keto-reductase Domain (Homo sapiens)
# Construct: 10 μL hFASN enzyme (full length, 300 ng, purified in house) and 360 μM NADPH; made in house
# Sequence (P49327 whole entry, the tested form may be a part): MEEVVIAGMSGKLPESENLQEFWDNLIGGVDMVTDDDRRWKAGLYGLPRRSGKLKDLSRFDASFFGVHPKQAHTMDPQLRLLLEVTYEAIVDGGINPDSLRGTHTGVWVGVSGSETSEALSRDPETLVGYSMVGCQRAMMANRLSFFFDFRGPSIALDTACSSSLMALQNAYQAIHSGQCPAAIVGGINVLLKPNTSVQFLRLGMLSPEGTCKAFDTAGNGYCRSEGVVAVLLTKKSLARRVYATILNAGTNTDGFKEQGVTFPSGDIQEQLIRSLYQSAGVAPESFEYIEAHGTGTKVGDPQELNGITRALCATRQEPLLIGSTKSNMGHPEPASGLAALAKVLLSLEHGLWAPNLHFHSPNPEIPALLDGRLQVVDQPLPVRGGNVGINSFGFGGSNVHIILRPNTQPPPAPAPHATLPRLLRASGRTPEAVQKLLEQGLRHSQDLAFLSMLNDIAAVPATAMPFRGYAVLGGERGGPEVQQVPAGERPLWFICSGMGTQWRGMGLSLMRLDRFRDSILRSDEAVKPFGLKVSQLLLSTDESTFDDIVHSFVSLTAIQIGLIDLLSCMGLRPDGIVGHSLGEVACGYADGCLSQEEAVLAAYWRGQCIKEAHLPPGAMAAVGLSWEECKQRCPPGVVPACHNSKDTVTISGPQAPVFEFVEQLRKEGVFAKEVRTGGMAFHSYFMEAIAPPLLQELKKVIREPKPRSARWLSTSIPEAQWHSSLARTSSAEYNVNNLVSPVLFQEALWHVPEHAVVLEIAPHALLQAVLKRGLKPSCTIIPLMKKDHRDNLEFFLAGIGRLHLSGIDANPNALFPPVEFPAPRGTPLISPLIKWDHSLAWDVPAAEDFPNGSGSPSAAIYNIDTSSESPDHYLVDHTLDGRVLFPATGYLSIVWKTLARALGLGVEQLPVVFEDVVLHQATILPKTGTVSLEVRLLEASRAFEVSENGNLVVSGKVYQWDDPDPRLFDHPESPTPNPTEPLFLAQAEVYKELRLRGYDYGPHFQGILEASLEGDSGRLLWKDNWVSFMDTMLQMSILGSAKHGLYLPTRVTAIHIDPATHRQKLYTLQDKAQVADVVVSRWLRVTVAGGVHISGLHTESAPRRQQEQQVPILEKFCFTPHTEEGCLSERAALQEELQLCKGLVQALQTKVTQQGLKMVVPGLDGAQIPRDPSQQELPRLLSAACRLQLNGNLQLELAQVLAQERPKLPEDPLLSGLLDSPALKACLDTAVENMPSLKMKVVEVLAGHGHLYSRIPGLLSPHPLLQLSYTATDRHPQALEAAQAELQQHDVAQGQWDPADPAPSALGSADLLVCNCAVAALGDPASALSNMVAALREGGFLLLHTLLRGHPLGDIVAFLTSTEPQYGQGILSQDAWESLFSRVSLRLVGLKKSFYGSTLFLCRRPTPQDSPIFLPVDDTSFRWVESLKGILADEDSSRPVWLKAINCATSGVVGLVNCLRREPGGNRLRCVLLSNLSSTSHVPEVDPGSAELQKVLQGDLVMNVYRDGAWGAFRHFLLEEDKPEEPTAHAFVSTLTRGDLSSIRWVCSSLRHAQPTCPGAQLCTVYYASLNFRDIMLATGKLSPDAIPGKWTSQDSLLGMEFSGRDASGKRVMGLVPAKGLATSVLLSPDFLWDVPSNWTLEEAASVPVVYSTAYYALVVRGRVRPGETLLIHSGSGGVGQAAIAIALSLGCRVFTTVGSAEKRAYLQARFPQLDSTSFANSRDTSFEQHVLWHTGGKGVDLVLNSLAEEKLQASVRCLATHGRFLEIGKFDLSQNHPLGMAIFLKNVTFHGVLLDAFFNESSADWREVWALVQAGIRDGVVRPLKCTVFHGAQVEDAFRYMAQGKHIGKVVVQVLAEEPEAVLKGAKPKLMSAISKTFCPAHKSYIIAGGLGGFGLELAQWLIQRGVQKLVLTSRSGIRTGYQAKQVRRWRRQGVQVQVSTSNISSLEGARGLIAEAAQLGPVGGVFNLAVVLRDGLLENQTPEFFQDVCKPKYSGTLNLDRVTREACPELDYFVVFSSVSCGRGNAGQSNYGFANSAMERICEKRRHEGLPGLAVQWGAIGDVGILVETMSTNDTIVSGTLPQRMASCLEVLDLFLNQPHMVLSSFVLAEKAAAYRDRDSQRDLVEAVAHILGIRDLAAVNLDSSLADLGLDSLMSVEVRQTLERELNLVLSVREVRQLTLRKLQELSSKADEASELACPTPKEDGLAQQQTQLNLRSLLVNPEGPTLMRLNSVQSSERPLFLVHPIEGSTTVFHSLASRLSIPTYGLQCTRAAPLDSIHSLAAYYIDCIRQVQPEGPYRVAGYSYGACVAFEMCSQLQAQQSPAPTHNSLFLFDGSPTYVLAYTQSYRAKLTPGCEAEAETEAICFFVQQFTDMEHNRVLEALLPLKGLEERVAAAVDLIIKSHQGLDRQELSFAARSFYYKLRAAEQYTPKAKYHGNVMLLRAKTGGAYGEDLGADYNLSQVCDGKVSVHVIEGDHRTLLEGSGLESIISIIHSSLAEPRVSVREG
# ASSAY OVERVIEW: Fatty Acid Synthase Keto-Reductase Domain (FASN KR) Inhibition
# Format: biochemical
# STATED CONDITIONS: mean where tested more than once; read-out: FASN K-R Domain pIC50 (converted)
Each entry below carries its reported IC50.
PROPERTY: IC50

INSERT INTO assay_data (query_smiles, property, experimental_result) VALUES
  ('Cc1ccc(C(=O)N2CC(c3ccc(-c4cccnc4)cc3)C2)cc1NC(=O)c1ccc(NC(C)C)nc1', 'IC50', '0.0447 µM'),
  ('COc1ccc(C(=O)N2CC(c3ccc(-c4cnn(C)c4)cc3)C2)cc1NC(=O)c1ccc(N2CCOCC2)nc1', 'IC50', '0.123 µM'),
  ('CC(C)Nc1ccc(C(=O)Nc2cc(C(=O)N3CCC(c4ccc(-c5cnn(C)c5)cc4)CC3)ccc2NC(C)C)cn1', 'IC50', '0.407 µM'),
  ('Cc1ccc(C(=O)N2CCC(c3ccc(-c4cnn(C)c4)cc3)CC2)cc1NC(=O)c1nccs1', 'IC50', '0.372 µM');
